Data credit: ChEMBL document CHEMBL4402570

assay: Stability of the compound in rat liver microsomes assessed as parent compound remaining at 0.5 uM measured after 10 mins in presence of NADPH by LC-MS/MS analysis; assay type: ADME, Microsome; conditions: read-out: Stability
readoutType: remaining at 10 min, 0.5 µM (%)

Cc1nc2cc(-c3cccc(-c4ccccc4)c3)nn2c(-c2cc(F)c3c(c2C)CCCO3)c1C(OC(C)(C)C)C(=O)O (racemic)
100
Cc1nc2cc(-c3ccc(OCc4ccccc4)cc3)nn2c(-c2cc(F)c3c(c2C)CCCO3)c1C(OC(C)(C)C)C(=O)O (configuration not stated)
79
Cc1nc2cc(-c3ccccc3)nn2c(-c2cc(F)c3c(c2C)CCCO3)c1C(OC(C)(C)C)C(=O)O (racemic)
97
Cc1ccc(-c2cc3nc(C)c(C(OC(C)(C)C)C(=O)O)c(-c4cc(F)c5c(c4C)CCCO5)n3n2)cc1 (configuration not stated)
94
COc1ccccc1-c1cccc(-c2cc3nc(C)c([C@H](OC(C)(C)C)C(=O)O)c(-c4cc(F)c5c(c4C)CCCO5)n3n2)c1
99
COc1ccc(-c2cccc(-c3cc4nc(C)c([C@H](OC(C)(C)C)C(=O)O)c(-c5cc(F)c6c(c5C)CCCO6)n4n3)c2)cn1
100
Cc1nc2cc(-c3cccc(-c4ccncc4)c3)nn2c(-c2cc(F)c3c(c2C)CCCO3)c1[C@H](OC(C)(C)C)C(=O)O
94
